# Relative luminescence activity, bis-CTZ, Int. listing for each entry below
assay: Substrate specificity of WNanoKAZ mutants, crude enzyme solution (Example 11); type: biochemical; conditions: Int.
Field format: numeric only.

Relative luminescence activity, bis-CTZ, Int. in this record for WNanoKAZ-K124Q: single amino acid-substituted WNanoKAZ mutant K124Q; SEQ ID NO: 12 (protein) FTLADFVGDWQQTAGYNQDQVLEQGGLSSLFQALGVSVTPIQKVVLSGENGLKADIHVIIPYEGLSGFQMGLIEMIFKVVYPVDDHHFKVILHYGTLVIDGVTPNMIDYFGRPYEGIAVFDGKQITVTGTLWNGNKIIDERLINPDGSLLFRVTINGVTGWRLCERILA : 33

More entries:
Query WNanoKAZ-E115P: WNanoKAZ with substitution of proline for glutamic acid at position 115; SEQ ID NO: 10 (protein) FTLADFVGDWQQTAGYNQDQVLEQGGLSSLFQALGVSVTPIQKVVLSGENGLKADIHVIIPYEGLSGFQMGLIEMIFKVVYPVDDHHFKVILHYGTLVIDGVTPNMIDYFGRPYPGIAVFDGKKITVTGTLWNGNKIIDERLINPDGSLLFRVTINGVTGWRLCERILA yields Relative luminescence activity, bis-CTZ, Int. of 19

The value of Relative luminescence activity, bis-CTZ, Int. measured for the molecule WNanoKAZ-R166N: single amino acid-substituted WNanoKAZ mutant R166N; SEQ ID NO: 16 (protein) FTLADFVGDWQQTAGYNQDQVLEQGGLSSLFQALGVSVTPIQKVVLSGENGLKADIHVIIPYEGLSGFQMGLIEMIFKVVYPVDDHHFKVILHYGTLVIDGVTPNMIDYFGRPYEGIAVFDGKKITVTGTLWNGNKIIDERLINPDGSLLFRVTINGVTGWRLCENILA turned out to be 18

Recorded result, WNanoKAZ: chimeric protein: positions 1-82 of native KAZ and 83-169 of nanoKAZ; SEQ ID NO: 6; I90V, P115E, Q124K, Y138I, N166R (protein, chimeric protein: positions 1-82 of native KAZ and 83-169 of nanoKAZ; I90V, P115E, Q124K, Y138I, N166R) FTLADFVGDWQQTAGYNQDQVLEQGGLSSLFQALGVSVTPIQKVVLSGENGLKADIHVIIPYEGLSGFQMGLIEMIFKVVYPVDDHHFKVILHYGTLVIDGVTPNMIDYFGRPYEGIAVFDGKKITVTGTLWNGNKIIDERLINPDGSLLFRVTINGVTGWRLCERILA , Relative luminescence activity, bis-CTZ, Int.: 24

Measured Relative luminescence activity, bis-CTZ, Int. of WNanoKAZ-V90I: single amino acid-substituted WNanoKAZ mutant, valine 90 back to isoleucine; SEQ ID NO: 8 (protein) FTLADFVGDWQQTAGYNQDQVLEQGGLSSLFQALGVSVTPIQKVVLSGENGLKADIHVIIPYEGLSGFQMGLIEMIFKVVYPVDDHHFKIILHYGTLVIDGVTPNMIDYFGRPYEGIAVFDGKKITVTGTLWNGNKIIDERLINPDGSLLFRVTINGVTGWRLCERILA : 21
